Run Description: chemical genetic growth profiling, strain panel (AID 1159580);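 further: tested at 20 µM; growth read once vehicle control cultures reached saturation at 30 °C; 1 = growth at the plate median or of vehicle wells; lower values mean less growth of the strain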
Condition Description: S. cerevisiae deletion strains, growth OD, locus YBR229C, strain ROT2, hits give low values
The campaign covered roughly 5,500 compounds. About 2,000 (36%) were called active. Roughly 18% stayed inconclusive and do not appear here. The list shows a part of the results.
Would you kindly list normalized growth for each of these compounds?
Please give the numeric answer without any surrounding text.

Reported normalized growth for `CCOC(=O)NC1=C(C2CC2)C(=O)C(NC(=O)OCC)=C(C2CC2)C1=O` was 1

Please fill in: normalized growth reported for `NC(N)=NC(=O)c1nc(Cl)c(N)nc1N` = 1

The recorded normalized growth for CCN(Cc1ccncc1)C(=O)C(CO)c1ccccc1 (stereo not given) is 0.996

Value of normalized growth reported for the compound `CC(C)(O)[C@@H]1Cc2cc3ccc(=O)oc3cc2O1` is 1

Record CC1CC[C@@]2(OC1)O[C@H]1CC3C4CC[C@@H]5C[C@@H](O)CC[C@]5(C)C4CC[C@]3(C)[C@H]1[C@@H]2C (stereo not given in full) . Reported normalized growth: 1.01

The compound identified as Oc1cc2c(cc1O)C1c3ccc(O)c(O)c3OCC1(O)C2 (stereo not given) registered its normalized growth at 1

Form: compound = `COc1ccc2ccc(=O)oc2c1` ; normalized growth = 1.02

Entry `COc1ccc(CCNc2ccc(C(F)(F)F)cc2N)cc1OC` ; normalized growth = 0.998

Lookup result for C[C@@H]1CC[C@@]2(OC1)OC1CC3C4CC=C5C[C@@H](O)CC[C@]5(C)C4CC[C@]3(C)C1[C@@H]2C (stereo not given in full) ; measured normalized growth: 1

normalized growth reported for this compound `Cn1[nH]c(=O)cc1C(=O)NN` : 1.02

For `CCC(=O)c1c(O)cc(O)cc1O` the compound record lists normalized growth as 0.994

So, `CSc1nsc(SC)c1C(=O)NC(=O)Nc1ccc(F)cc1F` ? Its normalized growth was 1.01

# normalized growth of `Cc1ccc(-c2csc(-c3ccc(Oc4ccc(C(F)(F)F)cn4)cc3)n2)c(C)c1` = 1

What the record says about `NC(=O)c1ncn([C@@H]2O[C@H](CO)[C@@H](O)[C@H]2O)n1` : normalized growth is 0.993

In plain terms, NC(CSCSCC(N)C(=O)O)C(=O)O (stereo not given) has a documented normalized growth of 0.998

Just so you know, measured normalized growth for CC1CCC2(OC1)OC1CC3C4CC[C@H]5C[C@@H](O)CC[C@]5(C)C4CC(=O)[C@]3(C)C1C2C (stereo not given in full) came out at 1.01

Reported normalized growth ( `C[C@@H]([C@H](O)c1ccccc1)N(C)C` ) = 1

// normalized growth lookup, compound = `Cc1cc(C)c(CSCCNC(=O)Nc2ccc(F)cc2F)c(C)c1` , result: 1.01

Short answer for `NC(N)=NC(=O)c1nc(Cl)c(N2CCCCCC2)nc1N` : normalized growth was 1.01

Noted for O=C(Cc1cccs1)NC1C(=O)N2C(C(=O)[O-])=C(C[n+]3ccccc3)CSC12 (stereo not given) : its normalized growth reads 0.99

# compound CCOC(=O)C1C(c2cccnc2)C(C(=O)OCC)C(O)(C(F)(F)F)NC1(O)C(F)(F)F (stereo not given) ; its normalized growth = 1

Quick note, normalized growth for COC(=O)C[C@H]1C(C)(C)C2(Cl)O[C@@]34CC2C(=O)[C@]1(C)C3CC[C@]1(C)C4=CC(=O)O[C@H]1c1ccoc1 (stereo not given in full) landed at 1

Entry under test: `COc1ccccc1NC(=O)NCCSCc1ccccc1Cl` . Its normalized growth was 0.981

Entry under test: `CCCCOc1cc(C(=O)NCCN(CC)CC)c2ccccc2n1` . Its normalized growth was 1.01

Noted for `CCOC(=O)c1c(C)cc(OC)cc1O` : its normalized growth reads 1

====

Answer each item with its documented normalized growth.
Run Description: chemical genetic growth profiling, strain panel (AID 1159580);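 further: tested at 20 µM; growth read once vehicle control cultures reached saturation at 30 °C; 1 = growth at the plate median or of vehicle wells; lower values mean less growth of the strain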
Condition Description: S. cerevisiae deletion strains, growth OD, locus YJR075W, strain HOC1, hits give low values
Out of some 5,500 compounds screened, about 2,000 (36%) were called active. Inconclusive results (about 18%) are left out. The list shows a part of the results.
A bare number is all that is needed in reply.

// normalized growth lookup, compound = `CCOC(=O)NC1=C(C2CC2)C(=O)C(NC(=O)OCC)=C(C2CC2)C1=O` , result: 0.999

So, `CCCCCc1c2c(cc(O)c1C(=O)O)OC(=O)c1c(cc(OC)cc1C(=O)CCCC)O2` ? Its normalized growth was 0.993

Looking up C[N+](C)(C)CC(O)CC(=O)O (stereo not drawn) , I see its normalized growth listed as 1.01

The reported value for `COCCCNC(=S)N/N=C\c1cccc(OC)c1O` in terms of normalized growth is 0.979

The compound identified as CC1O[C@@H](Oc2c(-c3ccc(O)c(O)c3)oc3cc(O)cc(O)c3c2=O)[C@H](O)[C@H](O)[C@H]1O (stereo partly drawn) registered its normalized growth at 0.996

compound `O=[N+]([O-])c1ccc(Oc2cccc3cccnc23)cc1` , normalized growth observed: 1.02

Data point: `COc1cc(OC)c2ccc(=O)oc2c1` ; normalized growth = 1.01

The reported value for CNCC(O)c1ccc(O)cc1 (stereo not drawn) in terms of normalized growth is 1.01

====

Run Description: chemical genetic growth profiling, strain panel (AID 1159580);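 further: tested at 20 µM; growth read once vehicle control cultures reached saturation at 30 °C; 1 = growth at the plate median or of vehicle wells; lower values mean less growth of the strain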
Condition Description: S. cerevisiae deletion strains, growth OD, locus YLR258W, strain gsy2
The whole screen tested about 5,500 compounds, of which about 2,000 (36%) were called active. Not shown: some 18% with an inconclusive outcome. No stated cut-off is given here; in the data, active means normalized growth mostly below about 0.91 (no sharp cut-off); inconclusive means no clear call, values can overlap the other calls; inactive means mostly above about 0.92. The list shows a part of the results.
Please answer using one outcome listed in true (1) (active), false (0) (inactive)

Call for entry C[C@]12C=CC(=O)C=C1CCC1C2[C@@H](O)C[C@@]2(C)C1CC[C@]2(O)C(=O)COP(=O)(O)O (stereo partly specified) :
false (0)

# fetch the recorded call for `O=c1c(O)c(-c2ccc(O)c(O)c2)oc2c(O[C@@H]3O[C@H](CO)[C@H](O)[C@@H](O)[C@H]3O)c(O)cc(O)c12` here
false (0)

Please share the test call associated with CC(C1OC(C)(C)C(O)C1O)[C@@H]1CC[C@]2(C)C3=CCC4C(C)(C)C(=O)CC[C@]4(C)C3CC[C@@]12C (stereo partly specified) .
false (0)

Outcome? `C=C(C)[C@H]1COc2cc3oc(=O)ccc3cc2O1`
true (1)

How did this test come out for `O=c1c(O)c(-c2ccc(O)c(O)c2)oc2cc(O)cc(O)c12` ?
true (1)

Outcome? `O=c1c(O)c(-c2ccc(O)cc2O)oc2cc(O)cc(O)c12`
false (0)

Please state the recorded outcome for this molecule: `NC(=O)c1ncn([C@@H]2O[C@H](CO)[C@@H](O)[C@H]2O)n1`
false (0)

Record lookup: outcome of this test for C[C@@H]1O[C@@H](OC[C@H]2OC(Oc3c(-c4ccc(OCCO)c(OCCO)c4)oc4cc(OCCO)cc(O)c4c3=O)[C@H](O)[C@@H](O)[C@@H]2O)[C@H](O)[C@H](O)[C@H]1O (stereo partly specified) ?
false (0)

Called result for CC(CC(C(N)=O)(c1ccccc1)c1ccccc1)N(C)C (stereo unspecified)
false (0)

Field: outcome | Entry: `CCCCCc1c2c(cc(O)c1C(=O)O)OC(=O)c1c(cc(OC)cc1C(=O)CCCC)O2`
false (0)

Hi, do you know how `COc1ccc(-c2oc3cc(O[C@H]4O[C@H](CO)[C@@H](O)[C@H](O)[C@H]4O)c(OC)c(O)c3c(=O)c2OC)cc1O` came out in this test?
false (0)

GET /call?item= `COc1ccc(-c2cc(=O)c3c(O)cc(O[C@H]4O[C@H](CO[C@@H]5O[C@@H](C)[C@H](O)[C@@H](O)[C@H]5O)[C@@H](O)[C@H](O)[C@H]4O)cc3o2)cc1` returns the recorded outcome of this test.
false (0)

Can you look up the reported call for `Cc1[nH]ccc2c1[nH]c1cc(=O)ccc12` for me?
false (0)

Record request — test call for CC1O[C@@H](Oc2c(-c3ccc(O)c(O)c3)oc3cc(O)cc(O)c3c2=O)[C@H](O)[C@H](O)[C@H]1O (stereo partly specified)
false (0)

Hi, do you know how `COc1cc(OC)c2c(=O)c(OC)c(-c3ccc(OC)c(OC)c3)oc2c1` came out in this test?
false (0)

Hi, do you know how CCN(Cc1ccncc1)C(=O)C(CO)c1ccccc1 (stereo unspecified) came out in this test?
false (0)

Look up the recorded call for `CC(=O)OCC1=C(C(=O)O)N2C(=O)[C@@H](NC(=O)Cc3cccs3)[C@H]2SC1` in this test.
false (0)

Entry `COc1cc(OC)c2c(=O)c(O)c(-c3ccc(OC)c(OC)c3)oc2c1` : call = ?
false (0)

What is the recorded call for this molecule in the test? CC(C)c1c(O)c(-c2cc3c(c(C(C)C)c2O)CCC2C(C)(C)CCC[C@]32C)cc2c1CCC1C(C)(C)CCC[C@]21C (stereo partly specified)
false (0)

Please indicate how the test categorized CC(C)N(CCC(C(N)=O)(c1ccccc1)c1ccccn1)C(C)C (stereo unspecified) .
true (1)

Could you kindly confirm the outcome this assay logged for Cc1ccccc1OCC(O)CO (stereo unspecified) ?
false (0)

Where do these numbers come from? They come from PubChem BioAssay AID1159580.
